# test_target: human recombinant MC4R (Homo sapiens, UniProt P32245)
# Sequence (P32245 whole entry): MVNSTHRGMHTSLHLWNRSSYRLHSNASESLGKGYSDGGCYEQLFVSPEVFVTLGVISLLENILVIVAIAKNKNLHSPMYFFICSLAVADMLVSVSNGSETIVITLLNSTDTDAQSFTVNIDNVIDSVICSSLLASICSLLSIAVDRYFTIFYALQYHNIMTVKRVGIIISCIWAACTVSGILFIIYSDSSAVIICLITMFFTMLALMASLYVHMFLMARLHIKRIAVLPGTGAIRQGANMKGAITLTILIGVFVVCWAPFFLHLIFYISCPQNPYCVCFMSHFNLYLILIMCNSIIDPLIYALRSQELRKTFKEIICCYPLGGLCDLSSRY
# test_summary: Ca2+ signalling functional assay, MC4R stable cell line (CHO-K1/Gα15)
# reported_conditions: calcium flux functional assay
Positions of bridges follow the written chain, without caps; N, C: chain ends. Non-standard residues stand in square brackets, D forms with d. Residues, ends and D or L forms follow the SMILES beside them. Triazole bridges read from a SMILES are 1,4-linked. Lys(N3) = [N-]=[N+]=NCCCC[C@H](N)C(=O)O; NMeH = CN[C@@H](Cc1c[nH]cn1)C(=O)O; NMeR = CN[C@@H](CCCNC(=N)N)C(=O)O; dPra = C#CC[C@@H](N)C(=O)O; Nle = CCCC[C@H](N)C(=O)O; Pra = C#CC[C@H](N)C(=O)O
Reported values of pIC50 for individual entries
pIC50 (log units): -log10 of the concentration in mol/L.

CSCC[C@H](NC(=O)[C@H](CO)NC(=O)[C@H](Cc1ccc(O)cc1)NC(=O)[C@H](CO)NC(C)=O)C(=O)N[C@@H](CCC(=O)O)C(=O)N[C@@H](Cc1c[nH]cn1)C(=O)N[C@@H](Cc1ccccc1)C(=O)N[C@@H](CCCNC(=N)N)C(=O)N[C@@H](Cc1c[nH]c2ccccc12)C(=O)NCC(=O)N[C@@H](CCCCN)C(=O)N1CCC[C@H]1C(N)=O [KR-005]: 7.17
CCCC[C@H](NC(C)=O)C(=O)N1CCC(=O)NCC[C@@H](C(=O)N[C@@H](Cc2c[nH]c3ccccc23)C(N)=O)NC(=O)[C@H](CCCNC(=N)N)NC(=O)[C@@H](Cc2ccccc2)NC(=O)[C@H](Cc2c[nH]cn2)NC(=O)C1 [KR-027]: 7.08
CCCC[C@H](NC(C)=O)C(=O)N[C@H]1CCCCn2cc(nn2)C[C@H](C(=O)N[C@@H](CCCCN)C(N)=O)NC(=O)[C@H](Cc2c[nH]c3ccccc23)NC(=O)[C@H](CCCNC(=N)N)NC(=O)[C@@H](Cc2ccccc2)NC(=O)[C@H](Cc2c[nH]cn2)NC1=O [KR-070] (Ac-[Nle][Lys(N3)]H[dF]RW[dPra]K-NH2; triazole 2-7): 7.07

Turning now to a further compound:
Q: Lab note: need pIC50 for CCCC[C@H](NC(C)=O)C(=O)N[C@H]1CCCCn2cc(nn2)C[C@@H](C(N)=O)NC(=O)[C@H](Cc2c[nH]c3ccccc23)NC(=O)[C@H](CCCNC(=N)N)N(C)C(=O)[C@@H](Cc2ccccc2)NC(=O)[C@H](Cc2c[nH]cn2)N(C)C1=O [KR-052] (Ac-[Nle][Lys(N3)][NMeH][dF][NMeR]W[Pra]-NH2; triazole 2-7) on human recombinant MC4R (Homo sapiens, UniProt P32245), anyone have it?
Result: 6.91

* * *

# test_summary: In vivo topical administration pharmacokinetics of K173, rabbit (aqueous humor, cornea)
# reported_conditions: aqueous humor, topical or ocular, 5 mg/ml solution, 35 L per eye, Group 3 (8 BID doses), topical 5 mg/ml, 2 hr post-last dose, OS, Mean, read-out: K173 Concentrations (ng/mL) in Rabbit Aqueous Humor OS Sample, Mean
Positions of bridges follow the written chain, without caps; N, C: chain ends. Non-standard residues stand in square brackets, D forms with d. Residues, ends and D or L forms follow the SMILES beside them. Triazole bridges read from a SMILES are 1,4-linked. *: point of attachment. Benzoyl(3,5-(OH)2) = O=C(c1cc(O)cc(O)c1)*; Lys(N3) = [N-]=[N+]=NCCCC[C@H](N)C(=O)O; dPhe(4-F) = N[C@H](Cc1ccc(F)cc1)C(=O)O; Nle = CCCC[C@H](N)C(=O)O; Pra = C#CC[C@H](N)C(=O)O
experimental_endpoint: level at 2 h (ng/mL)
Reply with just the number (in ng/mL).

Q: GET /values?readout=level at 2 h&item= CCCC[C@H](NC(=O)c1cc(O)cc(O)c1)C(=O)N[C@H]1CCCCn2cc(nn2)C[C@@H](C(N)=O)NC(=O)[C@H](Cc2c[nH]c3ccccc23)NC(=O)[C@H](CCCNC(=N)N)NC(=O)[C@@H](Cc2ccc(F)cc2)NC(=O)[C@H](Cc2c[nH]cn2)NC1=O [KR-072] ({Benzoyl(3,5-(OH)2)}-[Nle][Lys(N3)]H[dPhe(4-F)]RW[Pra]-NH2; triazole 2-7)
Result: 12.1
